target: T1, human CD47 (analyte in the Biacore assay) (human, UniProt Q08722 19-139, limits assumed); assay: SPR (Biacore T200), antibody captured by anti-mouse Fc, human CD47 as analyte
T1 construct: also called human CD47 protein
Endpoint Label: koff (s⁻¹)
Quick note: give the figure in s⁻¹, leave out the unit.

>>> assay_result("059-1.30.1 (antibody, mouse IgG1, V domains shown, also called 059-1.30.1 purified antibody) VH: EVQLQQSGPELVKPGASVRMSCKASGYTFTNYVMHWVKQKPGQGLEWIGYINPYNDGTKYSEKFKGKATLTSDKSSITAYMELSSLTSEDSAVYYCAKGGLFTFDYWGQGTTLTVSS VL: DVVMTQTPLSLPVSLGDQASISCRSSQSLVHSKGNTYLHWYLQKPGQSPKLLIYRVSNRFSGVPDRFSGSGSGTDFTLKISRVEAEDLGVYFCSQSTHVPFTFGSGTKLEIK")
0.0128

Here is the next item to consider.
For the binder B6H12 (commercialized CD47 antibody, purchased from Abcam, catalog No. ab3283) (antibody) EVQLVESGGDLVKPGGSLKLSCAASGFTFSGYGMSWVRQTPDKRLEWVATITSGGTYTYYPDSVKGRFTISRDNAKNTLYLQIDSLKSEDTAIYFCARSLAGNAMDYWGQGTSVTVSSGGGGSGGGGSGGGGSDIVMTQSPATLSVTPGDRVSLSCRASQTISDYLHWYQQKSHESPRLLIKFASQSISGIPSRFSGSGSGSDFTLSINSVEPEDVGVYYCQNGHGFPRTFGGGTKLEIK , what koff is on record?
0.00364
